- System: U2OS
- Measurement description: cell viability relative to DMSO; higher = less toxic
- Recorded conditions: 72 h; 100 nM
Please provide measured cell viability for the entries that follow.
Only the number, expressed in %, is required.

Query string: Name the recorded cell viability for Oc1ccc2c3c1O[C@H]1c4c(c5ccccc5n4Cc4ccccc4)C[C@@]4(O)[C@@H](C2)N(CC2CC2)CC[C@]314 [N-benzylnaltrindole] .
Result string: 95.9

Query string: Item: CNC(=O)c1cc(COc2nnc(Nc3ccc(Cl)cc3)c3ccoc23)ccn1 [telatinib]
Result string: 101

Query string: Item: CC(C)(S)C(N)C(=O)O (stereo in doubt) [penicillamine-(racemic)]
Result string: 100

----------
Please provide measured cell viability for the entries that follow.
- Tested on: Vero E6
- Measurement description: cell viability relative to DMSO; higher = less toxic
- Recorded conditions: 72 h; 10000 nM
Where a name gives a salt, the structure may show the parent alone.
Only the number, expressed in %, is required.

Query string: Name the recorded cell viability for "CC(C)C[C@H](NC(=O)[C@H](Cc1ccccc1)NC(=O)c1cnccn1)B(O)O" .
Result string: 0.1

Query string: Item: "CCOc1ccc(C[C@H]2NC(=O)CCSSC[C@@H](C(=O)N3CCC[C@H]3C(=O)N[C@@H](CCCN)C(=O)NCC(N)=O)NC(=O)[C@H](CC(N)=O)NC(=O)[C@H]([C@@H](C)O)NC(=O)[C@H]([C@@H](C)CC)NC2=O)cc1"
Result string: 100

Query string: Item: CCOC(=O)NNc1ccc(N(CC)CC(C)O)nn1 (stereo unspecified)
Result string: 95.2

Query string: Item: "CNCc1ccc(-c2cc(-c3nc(-c4ccc(S(=O)(=O)C(C)C)cc4)cnc3N)on2)cc1"
Result string: 2.1

Query string: Item: "O=C(Nc1ncc(SCCN2CCCC2)s1)[C@]1(c2ccc(S(=O)(=O)C3CC3)cc2)C[C@H]1C1CCCCC1"
Result string: 95.4

Query string: Item: "Nc1nc2ccc(Cl)cc2c2nc(-c3ccco3)nn12"
Result string: 85.9

Query string: Item: CC/C(=C(\c1ccc(O)cc1)c1ccc(OCCNC)cc1)c1ccccc1 [Endoxifen HCl]
Result string: 91.1

Query string: Item: "O=C(O)c1cc2ccccc2s1"
Result string: 93

Query string: Item: "CC1=CC(=O)c2ccccc2C1=O"
Result string: 95.1

Query string: Item: CCOC(=O)C1=C(N)Oc2ccc(Br)cc2C1C(C#N)C(=O)OCC (stereo unspecified)
Result string: 99.3

Query string: Item: "N#Cc1ccc(NCCNCC(=O)N2CCC[C@H]2C#N)nc1"
Result string: 104

Query string: Item: "O=S(=O)(c1cccc2c(Cl)cccc12)N1CCCNCC1"
Result string: 94.1

Query string: Item: "COc1ccc(-c2nc(C(=O)N3CCN(C)CC3)sc2-c2ccc(OC)cc2)cc1"
Result string: 95.6

Query string: Item: "CN1CCN(c2ccc3nc(-c4c(N)c5c(F)cccc5[nH]c4=O)[nH]c3c2)CC1"
Result string: 42.1

Query string: Item: "CCSc1ccc2c(c1)N(CCCN1CCN(C)CC1)c1ccccc1S2"
Result string: 83.2

Query string: Item: "O=C(/C=C\n1cnc(-c2cc(C(F)(F)F)cc(C(F)(F)F)c2)n1)N1CC(F)(F)C1"
Result string: 36.9

Query string: Item: "CCOc1ccccc1N/N=C1/C(=O)N(c2nc(-c3ccccc3)cs2)N=C1C"
Result string: 94.8

Query string: Item: "CCn1cc(C(=O)O)c(=O)c2ccc(-c3ccncc3)cc21"
Result string: 103

Query string: Item: "C[C@H]1O[C@@H](n2cc(F)c(=O)[nH]c2=O)[C@H](O)[C@@H]1O"
Result string: 87.5

Query string: Item: "c1ccc(-c2cnn3cc(-c4ccc(OCCN5CCOCC5)cc4)cnc23)cc1"
Result string: 104

Query string: Item: CCC(=O)O[C@]1(C(=O)COC(C)=O)CC[C@H]2[C@@H]3C[C@H](C)C4=CC(=O)C=C[C@]4(C)[C@H]3[C@@H](O)C[C@@]21C [methylprednisolone-aceponate]
Result string: 104

----------
Please provide measured cell viability for the entries that follow.
- System: Calu-3
- Measurement description: cell viability relative to DMSO; higher = less toxic
- Recorded conditions: 72 h; 100 nM
Only the number, expressed in %, is required.

Query string: Requested read-out cell viability, target or system Calu-3, entry CC(=O)OCC(=O)[C@@]1(O)CC[C@H]2[C@@H]3CCC4=CC(=O)CC[C@]4(C)[C@H]3[C@@H](O)C[C@@]21C [hydrocortisone-acetate]
Result string: 97.9

Query string: Item: "CCc1cc(/C(C)=N/OCc2ccc(C3CCCCC3)c(C(F)(F)F)c2)ccc1CN1CC(C(=O)O)C1"
Result string: 98.8

Query string: Item: "O=C(O)c1ccc(Nc2ncc3c(n2)-c2ccc(Cl)cc2C(c2c(F)cccc2F)=NC3)cc1"
Result string: 112

Query string: Item: CN1CCC[C@@H]1CCSc1ccc(O)cc1 [SIB-1553A]
Result string: 98.6

Query string: Item: "COc1cc(C=O)c([N+](=O)[O-])cc1OC"
Result string: 103

Query string: Item: "CCOC(=O)c1c(O)nc2cccc3c2c1-c1ccccc1C3=O"
Result string: 95.7

Query string: Item: "N#Cc1ccc(-c2ccc(S(=O)(=O)Nc3cccc(N)n3)cc2)cc1"
Result string: 98.9

Query string: Item: "N[C@@H](Cc1ccc(O)cc1)C(=O)NCC(=O)NCC(=O)O"
Result string: 101

Query string: Item: "Nc1nc2ccc(Cl)cc2c2nc(-c3ccco3)nn12"
Result string: 96.9

----------
- Tested on: U2OS
- Measurement description: cell viability relative to DMSO; higher = less toxic
- Recorded conditions: 72 h; 1 nM
Property measured: cell viability (%)
Only the number, expressed in %, is required.

Query string: Name the recorded cell viability for "CSc1nc(NC2CCCC2)c([N+](=O)[O-])c(NC2CCCC2)n1" .
Result string: 102

Query string: Item: CC(C)(S)C(N)C(=O)O (stereo in doubt) [penicillamine-(racemic)]
Result string: 103

Query string: Item: CCCCCCCCCCC(CO)CCCCCCCC (stereo not given)
Result string: 96.6

Query string: Item: O=C1NCC2(CCN(CCc3ccccc3)CC2)O1 [fenspiride]
Result string: 105

Query string: Item: NCC(=O)N1C[C@H](NC(=O)c2ccccc2)C[C@H]1C(=O)O [danegaptide]
Result string: 93.6

Query string: Item: "CNC(=O)c1ccccc1Nc1cc(Nc2ccc(N3CCOCC3)cc2OC)ncc1C(F)(F)F"
Result string: 98.5

Query string: Item: N#CC(Cc1ccc(O)cc1)c1ccc(O)cc1 (stereo not given)
Result string: 99.6

Query string: Item: "OC[C@H]1O[C@@H](c2ccc(F)c(Cc3cc4ccccc4s3)c2)[C@H](O)[C@@H](O)[C@@H]1O"
Result string: 99.2

Query string: Item: CC(C)NC[C@@H](O)COc1ccc(CC(N)=O)cc1 (racemic) [atenolol-(+/-)]
Result string: 98.2

Query string: Item: "Cc1ccc2c(c1)C1(CCN(CCc3nc(-c4ccccc4)oc3C)CC1)OC(=O)N2"
Result string: 98.5

Query string: Item: CC[C@]1(O)C[C@@H]2CN(CCc3c([nH]c4ccccc34)[C@@](C(=O)OC)(c3cc4c(cc3OC)N(C)[C@H]3[C@@](O)(C(=O)OC)[C@H](OC(C)=O)[C@]5(CC)C=CCN6CC[C@]43[C@@H]65)C2)C1 [Vinblastine (sulfate)]
Result string: 96.1

Query string: Item: "CC(C)c1cc(CNc2nc(Nc3cc(C4CC4)[nH]n3)cc(N3CCN(C)CC3)n2)on1"
Result string: 104

Query string: Item: "CC(=O)N1CC[N+](C)(C)CC1"
Result string: 101

Query string: Item: CN1CCC[C@@H]1CCSc1ccc(O)cc1 [SIB-1553A]
Result string: 97.9

Query string: Item: "CCS(=O)(=O)c1cccc(-c2cc(C(=O)NC3CCN(C)CC3)c(C)c3[nH]c4ncc(C)cc4c23)c1"
Result string: 98.3

----------
- Tested on: Caco-2
- Measurement description: cell viability relative to DMSO; higher = less toxic
- Recorded conditions: 72 h; 10 nM
Property measured: cell viability (%)
Only the number, expressed in %, is required.

Query string: Name the recorded cell viability for CSc1ccc(C(=O)c2[nH]c(=O)[nH]c2C)cc1 [enoximone] .
Result string: 87.2

Query string: Item: "C[C@H](NC(=O)Cc1cc(F)cc(F)c1)C(=O)N[C@@H]1C(=O)N(C)c2ccccc2-c2ccccc21"
Result string: 88.6

Query string: Item: C=CCc1cc(OC)c(O)c(C(=O)NCCO)c1 [alibendol]
Result string: 112

Query string: Item: CN1CCN(C(=O)O[C@H]2c3nccnc3C(=O)N2c2ccc(Cl)cn2)CC1 [ESZOPICLONE]
Result string: 98.3

Query string: Item: CCOCCn1c(N2CCCN(C)CC2)nc2ccccc21 [emedastine]
Result string: 102
